This collection of values is drawn from ChEMBL document CHEMBL1125485.

# Species on record: Oryctolagus cuniculus
# assay info: Inhibition of platelet aggregation using collagen as activating agent in rabbit platelet rich plasma (PRP)
# Assay type: functional
readout: EC50 (nM)

line notation	EC50, nM
CCOC(=O)/C=C/c1ccc2[nH]c3nc(O)nc-3cc2c1	280
NC(=O)CCCOc1ccc2[nH]c3nc(O)nc-3cc2c1	2520
CN(C(=O)CCCOc1ccc2nc3nc(O)n(C)c3cc2c1)C1CCCCC1	40

[P] CCOC(=O)COc1ccc2[nH]c3nc(O)nc-3cc2c1
[Q] OCCOc1ccc2[nH]c3nc(O)nc-3cc2c1
[R] COC(=O)CCCCc1ccc2[nH]c3nc(O)nc-3cc2c1
### Prompt Sort low-to-high on EC50, please. Sort the labels as requested; that list is your answer.
### Response Q, R, P
